B1: NKR-P1B tetramers (biotinylated NKR-P1B on streptavidin) [modified: biotin on the BirA tag; biotin on the BirA tag] [mouse] / Clr-b on transfected HEK293T cells [mouse] (parent)
chain 1: SAKLECPQDWLSHRDKCFHVSQVSNTWKECRIDCDKKGATLLLIQDQEELRFLLDSIKEKYNSFWIGLSYTLTDMNWKWINGTAFNSDVLKITGVTENGSCAAISGEKVTSEGCSSDNRWICQKELN
chain 2: MCVTKASLPMLSPTGSPQEVEVGKILQGKRHGTISPESCAKLYCYYGVIMVLTVAVIALSVALSATKTEQIPVNKTYAACPQNWIGVENKCFYFSEYPSNWTFAQAFCMAQEAQLARFDNQDELNFLMRYKANFDSWIGLHRESSEHPWKWTDNTEYNNTIPIRGEERFAYLNNNGISSTRIYSLRMWICSKLNSYSLHCQTPFFPS

Variants of: B1
ASSAY_NOTES: flow cytometry on cells (PE-tetramer staining)
CONDITION_NOTES: with Clr-b on transfected HEK293T cells [mouse]; HEK293T cells stained 48 h after transfection with Clr-b pIRES2-EGFP; parent: 3.14e+03
OBSERVED_PROPERTY: response (MFI)

(A) chain 1 E112A
(B) chain 1 N25A
Query :: Of A and B , whose reported response is the larger number? Field: selected label. Fill in the label of the entry you choose.
Result :: B
(B: 5680 MFI, A: 269 MFI)

(P) chain 1 S116A
(Q) chain 1 Y61A
Query :: Identify the item whose response is the smaller number: P or Q Field: selected label. Fill in the label of the entry you choose.
Result :: P
(P: 211 MFI, Q: 346 MFI)

(I) chain 1 S100A
(II) chain 1 V95A
Query :: Of I and II , whose reported response is the larger number? Field: selected label. Fill in the label of the entry you choose.
Result :: II
(II: 5900 MFI, I: 217 MFI)

(P) chain 1 N118A
(Q) chain 1 N62A
Query :: Of P and Q , whose reported response is the larger number? Field: selected label. Fill in the label of the entry you choose.
Result :: Q
